molecular target: Bifunctional epoxide hydrolase 2 (Mus musculus); experiment: Inhibition of phosphatase activity of full length mouse soluble epoxide hydrolase pre-incubated for 30 mins before FDP substrate addition by fluorescence based assay
Sequence (P34914 whole entry): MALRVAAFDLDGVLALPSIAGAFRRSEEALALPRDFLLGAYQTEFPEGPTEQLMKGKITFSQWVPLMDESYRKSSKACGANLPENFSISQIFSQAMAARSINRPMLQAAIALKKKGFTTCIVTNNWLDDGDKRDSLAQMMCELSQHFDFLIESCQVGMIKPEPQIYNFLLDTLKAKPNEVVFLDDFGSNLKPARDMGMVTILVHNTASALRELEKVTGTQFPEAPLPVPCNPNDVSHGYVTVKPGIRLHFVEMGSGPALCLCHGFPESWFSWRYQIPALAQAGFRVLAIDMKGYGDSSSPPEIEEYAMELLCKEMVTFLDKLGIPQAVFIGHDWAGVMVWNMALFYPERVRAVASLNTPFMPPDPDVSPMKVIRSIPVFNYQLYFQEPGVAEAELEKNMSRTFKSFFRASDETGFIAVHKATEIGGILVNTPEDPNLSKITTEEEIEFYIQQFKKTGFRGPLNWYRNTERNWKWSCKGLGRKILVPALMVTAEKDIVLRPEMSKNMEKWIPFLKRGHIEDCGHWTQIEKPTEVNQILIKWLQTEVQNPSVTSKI
IC50 listing for selected compounds.
observable: IC50 (µM)

| structure-notation | tested-target | unit-abbrev | limit-qualifier | observed-measurement |
| --- | --- | --- | --- | --- |
| O=C(O)CCc1nc(-c2ccccc2)c(-c2ccccc2)o1 | Bifunctional epoxide hydrolase 2 (Mus musculus) | µM | = | 35.5 |
| O=C(O)CCCc1nc(-c2ccc(Cl)c(Cl)c2)c(-c2ccccc2)o1 | Bifunctional epoxide hydrolase 2 (Mus musculus) | µM | > | 30 |
